molecular target: Gardos channel of erythrocytes (Homo sapiens); assay: cell-based
MEASURE: IC50 (µM)
// return numeric value only (unit: µM, not printed)

Sample answers from the record:
c1ccc(C(c2ccccc2)c2ccccc2)cc1 [Compound 3]	1.2
OCCCC[Si](c1ccccc1)(c1ccccc1)c1ccccc1 [Compound 73]	0.371
Brc1ccc(C(c2ccccc2)c2ccc(Br)cc2)cc1 [Compound 66]	0.384
OC(c1ccccc1)(c1ccc(Br)cc1)c1ccc(Br)cc1 [Compound 50]	0.288
BrC(c1ccccc1)(c1ccccc1)c1ccccc1 [Compound 12]	0.252

Now consider a different compound.
With Gardos channel of erythrocytes (Homo sapiens) as the test system, NC(=O)CC(c1ccc(Cl)cc1)(c1ccc(Cl)cc1)c1ccc(Cl)cc1 [Compound 30, tris(4-chlorophenyl)propionamide] showed IC50 of 0.272

---

molecular target: Gardos channel of erythrocytes (Homo sapiens); test: cell-based; details: erythrocytes; read-out: Gardos Channel IC50
Listed next: entries and their corresponding IC50.
// return numeric value only (unit: nM, not printed)

Sample answers from the record:
N#CCC(c1ccccc1)(c1ccccc1)c1ccccc1	1130
O=CCC(c1ccccc1)(c1ccccc1)c1ccccc1Cl	83
COC(c1ccccc1)(c1ccccc1)c1ccccc1	551

Summary for this molecule, CC(=O)CC(c1ccccc1)(c1ccccc1)c1ccccc1Cl : IC50 is 27

Summary for this molecule, SC(c1ccccc1)(c1ccccc1)c1ccccc1 : IC50 is 2160

Summary for this molecule, O=CCC(c1ccccc1)(c1ccccc1)c1ccccc1 : IC50 is 220

Summary for this molecule, Fc1ccccc1C(c1ccccc1)c1ccccc1 : IC50 is 449

Summary for this molecule, COc1ccc(C(O)(c2ccccc2)c2ccccc2Cl)cc1 (centres unmarked) : IC50 is 187

---

Listed next: entries and their corresponding inhibition at 10 µM.
molecular target: Gardos channel of erythrocytes (Homo sapiens, UniProt O15554); test: cell-based; conditions: read-out: Gardos Channel % Inhibition
Please answer using the number first and the unit second.

Sample answers from the record:
NC(=O)C(c1ccccc1)(c1ccccc1)C1CCCCC1 [Compound 90, Cyclohexyl-diphenylacetamide]	98.3%
N#CCCC(c1ccccc1)(c1ccccc1)c1ccccc1	100%
N#CC(c1ccccc1)(c1ccccc1)C1CCCCC1	70.2%
OC(c1ccccc1)(c1ccc(Br)cc1)c1ccc(Br)cc1	100%
COC(=O)c1ccccc1C(c1ccccc1)c1ccccc1	98%

Summary for this compound, O=C(O)CC(c1ccccc1)(c1ccccc1)c1ccccc1 : inhibition at 10 µM is 77.2%

Summary for this compound, SC(c1ccccc1)(c1ccccc1)c1ccccc1 : inhibition at 10 µM is 99.2%

---

Listed next: entries and their corresponding pIC50.
target: Gardos channel of erythrocytes (Homo sapiens); assay: cell-based
# pIC50 is unitless: minus log10 of the molar concentration; print number only

OC(c1ccccc1)(c1ccccc1)c1ccc(C(F)(F)F)cc1	6.63
Oc1ccccc1C(O)(c1ccccc1)c1ccccc1	6.21

Now consider a different molecule.
Summary for this molecule, O=CCC(c1ccc(Cl)cc1)(c1ccc(Cl)cc1)c1ccc(Cl)cc1 : pIC50 is 6.36

---

Listed next: entries and their corresponding IC50.
target: Gardos channel of erythrocytes (Homo sapiens); assay: cell-based; conditions: erythrocytes; read-out: Gardos Channel IC50
// return numeric value only (unit: nM, not printed)

C1=CC(=P(c2ccccc2)(c2ccccc2)c2ccccc2)C=C1	957

Summary for this molecule, O=C(O)CC(c1ccc(Cl)cc1)(c1ccc(Cl)cc1)c1ccc(Cl)cc1 : IC50 is 1680

Summary for this molecule, N#CC(c1ccccc1)(c1ccccc1)c1ccccc1 : IC50 is 133

Summary for this molecule, N#CCCC(c1ccccc1)(c1ccccc1)c1ccccc1 : IC50 is 88

Summary for this molecule, NC(=O)CCC(c1ccccc1)(c1ccccc1)c1ccccc1 : IC50 is 220

Summary for this molecule, NC(=O)C(c1ccccc1)(c1ccccc1)C1CCCCC1 [Compound 90, Cyclohexyl-diphenylacetamide] : IC50 is 72

Summary for this molecule, COc1ccc(C(c2ccccc2)c2ccccc2Cl)cc1 (stereo not drawn) : IC50 is 918

Summary for this molecule, O=C(O)CCC(c1ccccc1)(c1ccccc1)c1ccccc1 : IC50 is 1400

Summary for this molecule, O=C1CC[C@@H](COC(c2ccccc2)(c2ccccc2)c2ccccc2)O1 : IC50 is 135

Summary for this molecule, Oc1ccc(C(c2ccccc2)c2ccccc2Cl)cc1 (stereo not drawn) : IC50 is 739

Summary for this molecule, CCOC(=O)C(c1ccccc1)(c1ccccc1)c1ccccc1 : IC50 is 193

Summary for this molecule, N#CC(c1ccccc1)(c1ccccc1)c1ccc([N+](=O)[O-])cc1Cl : IC50 is 336

Summary for this molecule, O=C(O)C(Cc1ccc2ccccc2c1)C(c1ccccc1)(c1ccccc1)c1ccccc1 (stereo not drawn) : IC50 is 5220

Summary for this molecule, CCOC(=O)C(c1ccccc1)(c1ccccc1)N1CCCCC1 : IC50 is 68

Value source: patent US7531573B2
